FYI, the data here is from ChEMBL document CHEMBL1149391.

experiment: Tmax in rat at 4.1 mg/kg, po; format: ADME, organism-based; parameters: dose 4.1 mg/kg, route oral; conditions: Sprague-Dawley, in vivo
OUTCOME_MEASURE: Tmax (h)
# unit: h | format: bare number

Prompt: Tell us which Tmax value is on record for `O=C1/C(=C/c2ccc(Cl)c(Cl)c2)SC(=S)N1NS(=O)(=O)c1ccccc1`
Completion: 3.3

* * *

assay: AUC(0-8h) in rat at 4.1 mg/kg, po; format: ADME, organism-based; set-up: time < 8 hr, dose 4.1 mg/kg, route oral; conditions: Sprague-Dawley, plasma
OUTCOME_MEASURE: AUC(0-t) at 8 h (ng·h/mL)
# unit: ng·h/mL | format: bare number

Prompt: Tell us which AUC(0-t) at 8 h value is on record for `O=C1/C(=C/c2ccc(Cl)c(Cl)c2)SC(=S)N1NS(=O)(=O)c1ccccc1`
Completion: 25500

* * *

test: Plasma clearance in rat at 0.16 mg/kg, iv; assay type: ADME, organism-based; design: dose 0.16 mg/kg, route intravenous; settings: Sprague-Dawley
OUTCOME_MEASURE: clearance (mL/min/kg)
# unit: mL/min/kg | format: bare number

Prompt: Tell us which clearance value is on record for `O=C1/C(=C/c2ccc(Cl)c(Cl)c2)SC(=S)N1NS(=O)(=O)c1ccccc1`
Completion: 0.125

* * *

Measured IC50 of individual entries
target: RNA-directed RNA polymerase (Hepacivirus hominis); test: Inhibitory activity against HCV delta 21 NS5b RNA polymerase
Sequence (O39930 whole entry): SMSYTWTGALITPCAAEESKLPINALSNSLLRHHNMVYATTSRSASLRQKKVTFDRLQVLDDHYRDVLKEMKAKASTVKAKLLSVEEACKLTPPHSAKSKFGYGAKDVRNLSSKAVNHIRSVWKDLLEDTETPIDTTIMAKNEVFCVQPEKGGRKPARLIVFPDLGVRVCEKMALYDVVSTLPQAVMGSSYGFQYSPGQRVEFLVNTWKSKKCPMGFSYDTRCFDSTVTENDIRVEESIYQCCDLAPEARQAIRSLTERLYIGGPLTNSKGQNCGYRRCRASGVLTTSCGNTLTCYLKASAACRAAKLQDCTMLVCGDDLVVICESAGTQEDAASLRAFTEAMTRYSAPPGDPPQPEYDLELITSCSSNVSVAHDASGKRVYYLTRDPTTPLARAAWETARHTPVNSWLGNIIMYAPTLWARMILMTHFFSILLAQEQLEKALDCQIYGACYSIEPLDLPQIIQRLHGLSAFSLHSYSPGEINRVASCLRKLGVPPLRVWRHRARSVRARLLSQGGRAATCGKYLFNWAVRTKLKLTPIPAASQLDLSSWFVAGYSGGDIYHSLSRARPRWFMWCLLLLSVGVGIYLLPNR
# unit: µM | format: bare number

Please review the following examples before continuing.
- SAMPLE_SMILES: "CC(/C=C1\\SC(=S)N(NS(=O)(=O)c2ccccc2)C1=O)=C\\c1ccccc1"
  OUTCOME_MEASURE: "IC50"
  ASSAY_RESULT: 0.2
- SAMPLE_SMILES: "COc1cccc(/C=C2\\SC(=S)N(NS(=O)(=O)c3ccccc3)C2=O)c1"
  OUTCOME_MEASURE: "IC50"
  ASSAY_RESULT: 5

// switching to the query compound
Prompt: Tell us which IC50 value is on record for `O=C1/C(=C/c2ccc(F)cc2)SC(=S)N1NS(=O)(=O)c1ccccc1`
Completion: 1

* * *

assay: Volume of distribution in rat at 0.16 mg/kg, iv; assay type: ADME, organism-based; design: dose 0.16 mg/kg, route intravenous; conditions: Sprague-Dawley, in vivo, read-out: Vdss
OUTCOME_MEASURE: Vd
Quick note: unit goes after the number.

Prompt: Tell us which Vd value is on record for `O=C1/C(=C/c2ccc(Cl)c(Cl)c2)SC(=S)N1NS(=O)(=O)c1ccccc1`
Completion: 0.09 L/kg

* * *

test: AUC(0-8h) in rat at 4.3 mg/kg, po; type: ADME, organism-based; design: time < 8 hr, dose 4.3 mg/kg, route oral; conditions: Sprague-Dawley, plasma
OUTCOME_MEASURE: AUC(0-t) at 8 h (ng·h/mL)
# unit: ng·h/mL | format: bare number

Prompt: Tell us which AUC(0-t) at 8 h value is on record for `O=C1/C(=C/c2ccc(Cl)c(Cl)c2)SC(=S)N1NS(=O)(=O)c1cccs1`
Completion: 25600

* * *

assay: Half life in rat at 0.86 mg/kg, iv; assay type: ADME, organism-based; design: dose 0.86 mg/kg, route intravenous; conditions: Sprague-Dawley, in vivo
OUTCOME_MEASURE: half-life (h)
# unit: h | format: bare number

Prompt: Tell us which half-life value is on record for `O=C1/C(=C/c2ccc(Cl)c(Cl)c2)SC(=S)N1NS(=O)(=O)c1cccs1`
Completion: 3.3

* * *

target: RNA-directed RNA polymerase (Hepacivirus hominis); assay: Inhibitory activity against HCV delta 21 NS5b RNA polymerase
pIC50: −log10 of the molar value.
Returns one of criterion met or criterion not met; criterion met when pIC50 is >= 6.

Observe how each entry below is paired with its result.
- COMPOUND: "O=C1/C(=C/c2cccnc2)SC(=S)N1NS(=O)(=O)c1ccccc1"
  CATEGORY_LABEL: "criterion not met"
- COMPOUND: "O=C1/C(=C/c2ccccc2)SC(=S)N1NS(=O)(=O)c1ccccc1"
  CATEGORY_LABEL: "criterion not met"
- COMPOUND: "O=C1/C(=C/c2cc(F)ccc2F)SC(=S)N1NS(=O)(=O)c1ccccc1"
  CATEGORY_LABEL: "criterion not met"

Kindly consider the entry below.
Prompt: Check the entry `O=C1NC(=S)S/C1=C\c1ccc([N+](=O)[O-])cc1` : does pIC50 equal or exceed 6?
Completion: criterion not met

* * *

biological target: Genome polyprotein (Bovine viral diarrhea virus (strain CP7) (BVDV) (Mucosal diseasevirus), UniProt Q96662); assay: Inhibitory activity against BVDV NS5b RNA polymerase
Sequence (Q96662 3189-3907 limits assumed): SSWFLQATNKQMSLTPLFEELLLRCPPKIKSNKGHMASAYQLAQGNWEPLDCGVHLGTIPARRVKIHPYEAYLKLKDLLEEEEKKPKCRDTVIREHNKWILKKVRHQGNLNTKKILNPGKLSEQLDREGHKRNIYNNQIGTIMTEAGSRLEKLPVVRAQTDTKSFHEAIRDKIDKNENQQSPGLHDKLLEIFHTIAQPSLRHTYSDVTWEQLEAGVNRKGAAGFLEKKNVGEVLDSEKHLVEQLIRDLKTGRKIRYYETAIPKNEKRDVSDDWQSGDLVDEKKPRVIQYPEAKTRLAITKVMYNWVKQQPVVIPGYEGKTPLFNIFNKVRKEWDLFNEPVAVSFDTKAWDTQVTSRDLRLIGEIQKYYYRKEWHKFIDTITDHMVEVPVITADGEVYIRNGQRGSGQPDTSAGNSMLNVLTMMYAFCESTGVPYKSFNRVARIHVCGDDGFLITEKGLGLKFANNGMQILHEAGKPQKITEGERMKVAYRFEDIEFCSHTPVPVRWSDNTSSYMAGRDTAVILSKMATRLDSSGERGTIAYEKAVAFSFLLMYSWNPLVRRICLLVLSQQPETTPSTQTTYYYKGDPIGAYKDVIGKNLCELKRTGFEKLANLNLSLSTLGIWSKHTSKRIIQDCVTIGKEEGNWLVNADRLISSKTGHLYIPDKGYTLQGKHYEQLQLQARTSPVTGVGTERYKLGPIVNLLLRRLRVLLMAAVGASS
OUTCOME_MEASURE: IC50

Prompt: Tell us which IC50 value is on record for `O=C1/C(=C/c2ccc(Cl)cc2)SC(=S)N1NS(=O)(=O)c1ccccc1`
Completion: > 30 µM

* * *

target: Avian myoblastosis virus polyprotein II (Avian myeloblastosis virus)
Sequence (Q86831 whole entry): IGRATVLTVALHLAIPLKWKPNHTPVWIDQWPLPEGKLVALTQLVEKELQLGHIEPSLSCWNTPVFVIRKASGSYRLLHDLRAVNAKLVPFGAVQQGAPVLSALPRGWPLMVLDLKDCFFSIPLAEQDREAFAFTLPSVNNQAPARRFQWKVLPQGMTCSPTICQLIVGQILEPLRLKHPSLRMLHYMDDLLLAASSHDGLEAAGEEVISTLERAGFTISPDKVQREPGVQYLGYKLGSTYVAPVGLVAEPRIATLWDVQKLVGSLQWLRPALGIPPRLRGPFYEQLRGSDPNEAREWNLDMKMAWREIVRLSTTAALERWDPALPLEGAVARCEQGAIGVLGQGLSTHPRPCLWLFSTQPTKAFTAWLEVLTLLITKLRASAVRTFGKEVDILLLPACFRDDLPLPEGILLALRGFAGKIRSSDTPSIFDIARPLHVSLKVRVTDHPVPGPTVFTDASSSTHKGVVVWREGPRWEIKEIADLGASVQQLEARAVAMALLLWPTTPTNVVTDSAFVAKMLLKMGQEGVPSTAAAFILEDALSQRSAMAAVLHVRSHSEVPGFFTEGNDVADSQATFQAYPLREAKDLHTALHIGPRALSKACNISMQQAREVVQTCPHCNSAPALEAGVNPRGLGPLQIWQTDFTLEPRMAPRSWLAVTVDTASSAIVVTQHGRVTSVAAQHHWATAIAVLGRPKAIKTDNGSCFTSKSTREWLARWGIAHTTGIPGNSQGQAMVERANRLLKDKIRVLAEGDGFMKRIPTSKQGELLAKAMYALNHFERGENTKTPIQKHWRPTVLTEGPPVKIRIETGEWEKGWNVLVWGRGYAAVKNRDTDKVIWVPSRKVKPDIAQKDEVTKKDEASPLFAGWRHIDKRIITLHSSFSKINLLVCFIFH
pIC50: −log10 of the molar value.
OUTCOME_MEASURE: pIC50

Prompt: Recall the reported pIC50 of `O=C1/C(=C/c2ccc(Cl)cc2)SC(=S)N1NS(=O)(=O)c1ccccc1` when tested on Avian myoblastosis virus polyprotein II (Avian myeloblastosis virus).
Completion: < 4.52

* * *

experiment: Half life in rat at 0.16 mg/kg, iv; type: ADME, organism-based; parameters: dose 0.16 mg/kg, route intravenous; settings: Sprague-Dawley, in vivo
OUTCOME_MEASURE: half-life (h)
# unit: h | format: bare number

Prompt: Tell us which half-life value is on record for `O=C1/C(=C/c2ccc(Cl)c(Cl)c2)SC(=S)N1NS(=O)(=O)c1ccccc1`
Completion: 9.2

* * *

experiment: Cmax in rat at 4.1 mg/kg, po; assay type: ADME, organism-based; design: dose 4.1 mg/kg, route oral; details: Sprague-Dawley, in vivo
OUTCOME_MEASURE: Cmax
Quick note: unit goes after the number.

Prompt: Tell us which Cmax value is on record for `O=C1/C(=C/c2ccc(Cl)c(Cl)c2)SC(=S)N1NS(=O)(=O)c1ccccc1`
Completion: 3740 ng/mL

* * *

target: RNA-directed RNA polymerase (Hepacivirus hominis); assay: Inhibitory activity against HCV delta 21 NS5b RNA polymerase
OUTCOME_MEASURE: pIC50
In plain terms, pIC50 is the concentration in mol/L turned into minus its base-10 logarithm.

Please review the following examples before continuing.
- COMPOUND: "O=C1/C(=C/c2ccccc2F)SC(=S)N1NS(=O)(=O)c1ccccc1"
  TEST_SYSTEM: "RNA-directed RNA polymerase (Hepacivirus hominis)"
  OUTCOME_MEASURE: "pIC50"
  ASSAY_RESULT: 5.19
- COMPOUND: "O=C1/C(=C/c2ccc(F)cc2F)SC(=S)N1NS(=O)(=O)c1ccccc1"
  TEST_SYSTEM: "RNA-directed RNA polymerase (Hepacivirus hominis)"
  OUTCOME_MEASURE: "pIC50"
  ASSAY_RESULT: 5.52
- COMPOUND: "O=C1/C(=C/c2ccc(Br)c(Br)c2)SC(=S)N1NS(=O)(=O)c1ccccc1"
  TEST_SYSTEM: "RNA-directed RNA polymerase (Hepacivirus hominis)"
  OUTCOME_MEASURE: "pIC50"
  ASSAY_RESULT: 6.70
- COMPOUND: "CN1C(=O)/C(=C/c2ccc([N+](=O)[O-])cc2)SC1=S"
  TEST_SYSTEM: "RNA-directed RNA polymerase (Hepacivirus hominis)"
  OUTCOME_MEASURE: "pIC50"
  ASSAY_RESULT: 4.52
- COMPOUND: "CCCCS(=O)(=O)NN1C(=O)/C(=C/c2ccc(Cl)c(Cl)c2)SC1=S"
  TEST_SYSTEM: "RNA-directed RNA polymerase (Hepacivirus hominis)"
  OUTCOME_MEASURE: "pIC50"
  ASSAY_RESULT: 6.15
- COMPOUND: "Cc1cccc(/C=C2\\SC(=S)N(NS(=O)(=O)c3ccccc3)C2=O)c1"
  TEST_SYSTEM: "RNA-directed RNA polymerase (Hepacivirus hominis)"
  OUTCOME_MEASURE: "pIC50"
  ASSAY_RESULT: 4.60
- COMPOUND: "COc1ccc(/C=C2\\SC(=S)N(NS(=O)(=O)c3ccccc3)C2=O)cc1"
  TEST_SYSTEM: "RNA-directed RNA polymerase (Hepacivirus hominis)"
  OUTCOME_MEASURE: "pIC50"
  ASSAY_RESULT: 5.30
- COMPOUND: "O=C1/C(=C/c2cc(F)c(F)cc2F)SC(=S)N1NS(=O)(=O)c1ccccc1"
  TEST_SYSTEM: "RNA-directed RNA polymerase (Hepacivirus hominis)"
  OUTCOME_MEASURE: "pIC50"
  ASSAY_RESULT: 6.70
- COMPOUND: "O=C1/C(=C/c2ccc(Cl)c(F)c2)SC(=S)N1NS(=O)(=O)c1ccccc1"
  TEST_SYSTEM: "RNA-directed RNA polymerase (Hepacivirus hominis)"
  OUTCOME_MEASURE: "pIC50"
  ASSAY_RESULT: 6.00
- COMPOUND: "O=C1/C(=C/c2ccc(Cl)cc2)SC(=S)N1NS(=O)(=O)c1ccccc1"
  TEST_SYSTEM: "RNA-directed RNA polymerase (Hepacivirus hominis)"
  OUTCOME_MEASURE: "pIC50"
  ASSAY_RESULT: 5.82

Prompt: Tell us which pIC50 value is on record for `O=C1/C(=C/c2ccc(Cl)c(Cl)c2)SC(=S)N1NS(=O)(=O)c1ccccc1`
Completion: 6.70

Prompt: Tell us which pIC50 value is on record for `O=C1/C(=C/c2cc(F)c(F)c(F)c2)SC(=S)N1NS(=O)(=O)c1ccccc1`
Completion: 6.00

Prompt: Tell us which pIC50 value is on record for `O=C1/C(=C/c2ccc([N+](=O)[O-])cc2)SC(=S)N1NS(=O)(=O)c1ccccc1`
Completion: 5.70
